protocol details: Inhibition of rabbit liver carboxylesterase after 5 mins
Design: species or system Oryctolagus cuniculus
Binarize IC50 at 20 nM; below is yes (1), at or above is no (0).

>>> df
                                   molecule  label_value
0  CCCCCCCC[S+]([O-])CC(=O)C(F)(F)F (stereo not given)      yes (1)
1       O=C(C(=O)c1ccccc1)c1ccccc1 [BENZIL]      yes (1)
2                   CCCCCCCCSCC(=O)C(F)(F)F      yes (1)

(Q) Identify whether the molecule `CCCCCCCCS(=O)(=O)CC(=O)C(F)(F)F` records IC50 below 20 nM.
(A) no (0)

(Q) Say whether its IC50 is strictly beneath 20 nM. Entry: `CCCCCCCCCCC(=O)C(F)(F)F`
(A) no (0)

Origin of measurements: ChEMBL document CHEMBL1141638
